- tested system: UniProtKB P23977
- assay text: Functional cocaine antagonism was evaluated by inhibition of [3H]dopamine reuptake
Task for the reader: assign each of the following compounds its reported pIC50.
// pIC50 is dimensionless: -log10 of concentration (M)

The recorded pIC50 with UniProtKB P23977 for "CN1C[C@@H](C(=O)c2ccccn2)[C@H](c2ccccc2)C1" was 6.18

The recorded pIC50 with UniProtKB P23977 for "CN1C[C@@H](C(=O)c2cccs2)[C@H](c2ccc(Cl)cc2)C1" was 6.51

====

- tested system: Sodium-dependent dopamine transporter (Rattus norvegicus, UniProt P23977)
- Sequence (P23977 whole entry): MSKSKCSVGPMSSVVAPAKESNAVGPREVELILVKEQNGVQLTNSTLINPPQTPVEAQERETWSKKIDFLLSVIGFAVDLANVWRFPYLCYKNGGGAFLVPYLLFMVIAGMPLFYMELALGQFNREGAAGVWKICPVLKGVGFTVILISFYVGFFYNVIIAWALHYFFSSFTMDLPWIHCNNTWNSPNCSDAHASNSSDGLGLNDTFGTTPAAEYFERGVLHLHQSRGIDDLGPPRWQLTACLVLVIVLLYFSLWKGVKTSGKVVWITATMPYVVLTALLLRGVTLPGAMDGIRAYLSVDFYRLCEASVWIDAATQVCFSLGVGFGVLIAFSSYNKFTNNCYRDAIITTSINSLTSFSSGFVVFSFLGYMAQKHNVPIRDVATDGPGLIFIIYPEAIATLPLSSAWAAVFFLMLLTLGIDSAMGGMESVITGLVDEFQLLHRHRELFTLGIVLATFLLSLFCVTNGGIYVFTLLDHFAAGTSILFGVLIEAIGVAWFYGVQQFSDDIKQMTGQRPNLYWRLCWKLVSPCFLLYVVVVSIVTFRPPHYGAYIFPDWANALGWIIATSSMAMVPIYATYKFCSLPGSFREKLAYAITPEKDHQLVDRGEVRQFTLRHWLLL
- assay text: Inhibition of [3H]DA uptake at Dopamine transporter in rat cortex.
endpoint label: pKi
// pKi is dimensionless: -log10 of concentration (M)

pKi reported for this compound "COc1ccc(C(=O)[C@@H]2CN(C)C[C@H]2c2ccc(Cl)cc2)cc1" : 5.94

pKi reported for this compound "CN1C[C@@H](C(=O)c2ccccn2)[C@H](c2ccccc2)C1" : 6.20

pKi reported for this compound "Cc1ccc([C@@H]2CN(C)C[C@H]2C(=O)c2ccccc2F)cc1" : 5.71

pKi reported for this compound "CN1C[C@@H](C(=O)c2ccccc2)[C@H](c2ccccc2)C1" : 5.85

pKi reported for this compound "CN1C[C@@H](C(=O)c2ccccc2Cl)[C@H](c2ccc(Cl)cc2)C1" : 6.21

pKi reported for this compound "CN1C[C@@H](C(=O)c2ccc(F)cc2)[C@H](c2ccc(F)cc2)C1" : 5.40

pKi reported for this compound "CN1C[C@@H](C(=O)c2cccs2)[C@H](c2ccc(Cl)cc2)C1" : 6.70

pKi reported for this compound "CN1C[C@@H](C(=O)c2ccc(Cl)cc2)[C@H](c2ccc(Cl)cc2Cl)C1" : 5.90

pKi reported for this compound "CN1C[C@@H](C(=O)c2ccc(Cl)cc2)[C@H](c2ccccc2)C1" : 5.91

pKi reported for this compound "CN1C[C@@H](C(=O)c2ccc(Cl)cc2)[C@H](c2ccccc2F)C1" : 5.89

pKi reported for this compound "CN1C[C@@H](C(=O)c2cccc(C(F)(F)F)c2)[C@H](c2ccc(Cl)cc2)C1" : 5.50

====

- assay text: In vitro Ki against [3H]mazindol binding.
Task for the reader: assign each of the following molecules its reported pKi.
// pKi is dimensionless: -log10 of concentration (M)

pKi reported for this molecule COC(=O)[C@@H]1C2CC[C@@H](C[C@@H]1OC(=O)c1ccccc1)N2C (single isomer, unassigned) : 6.64

pKi reported for this molecule "CN1C[C@@H](C(=O)c2ccc(Cl)cc2)[C@H](c2ccccc2)C1" : 5.90

pKi reported for this molecule "CN1C[C@@H](C(=O)c2ccccn2)[C@H](c2ccccc2)C1" : 6.29

pKi reported for this molecule "CN1C[C@@H](C(=O)c2ccccc2Cl)[C@H](c2ccc(Cl)cc2)C1" : 6.47

pKi reported for this molecule "CN1C[C@@H](C(=O)c2ccccc2)[C@H](c2ccccc2)C1" : 5.93

pKi reported for this molecule "CN1C[C@@H](C(=O)c2cccs2)[C@H](c2ccc(Cl)cc2)C1" : 7.08

====

- tested system: Norepinephrine transporter (Rattus norvegicus, UniProt Q9WTR4)
- Sequence (Q9WTR4 whole entry): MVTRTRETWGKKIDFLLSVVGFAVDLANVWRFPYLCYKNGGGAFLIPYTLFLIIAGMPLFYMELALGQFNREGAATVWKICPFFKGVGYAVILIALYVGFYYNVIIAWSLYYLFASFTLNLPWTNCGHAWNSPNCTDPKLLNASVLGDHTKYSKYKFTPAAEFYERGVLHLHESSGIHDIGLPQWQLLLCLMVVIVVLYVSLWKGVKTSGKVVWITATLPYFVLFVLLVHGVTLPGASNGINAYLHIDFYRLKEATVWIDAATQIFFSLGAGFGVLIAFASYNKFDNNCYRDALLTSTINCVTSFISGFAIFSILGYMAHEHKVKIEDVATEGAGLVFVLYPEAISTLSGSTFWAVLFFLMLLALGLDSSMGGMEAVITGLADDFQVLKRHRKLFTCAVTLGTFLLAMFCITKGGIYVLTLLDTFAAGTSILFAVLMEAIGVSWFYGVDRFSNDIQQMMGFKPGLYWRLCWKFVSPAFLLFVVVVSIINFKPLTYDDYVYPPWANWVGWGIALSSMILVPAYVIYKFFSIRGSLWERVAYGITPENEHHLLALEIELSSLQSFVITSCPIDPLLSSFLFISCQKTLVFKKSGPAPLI
- assay text: Inhibition of [3H]NE uptake at Norepinephrine transporter in rat parietal/occipital cortex was determined
Kindly apply the following: yes if Ki is less than 200 nM, no in every other case.

Task: Please check: Ki for "CN1C[C@@H](C(=O)c2cccs2)[C@H](c2ccc(Cl)cc2)C1" , strictly under 200 nM or not?
Result: yes

Task: Please check: Ki for "CN1C[C@@H](C(=O)c2ccccc2)[C@H](c2ccccc2)C1" , strictly under 200 nM or not?
Result: yes

Task: Please check: Ki for "CN1C[C@@H](C(=O)c2ccc(F)cc2)[C@H](c2ccc(F)cc2)C1" , strictly under 200 nM or not?
Result: no

Task: Please check: Ki for "CN1C[C@@H](C(=O)c2ccc(Cl)cc2)[C@H](c2ccccc2)C1" , strictly under 200 nM or not?
Result: no

Task: Please check: Ki for "O=C(c1cccs1)[C@@H]1CN(c2ccccc2)C[C@H]1c1ccccc1" , strictly under 200 nM or not?
Result: no

Task: Please check: Ki for "O=C(c1ccccn1)[C@@H]1CN(c2ccccc2)C[C@H]1c1ccccc1" , strictly under 200 nM or not?
Result: no

Task: Please check: Ki for "CN1C[C@@H](C(=O)c2ccccc2Cl)[C@H](c2ccc(Cl)cc2)C1" , strictly under 200 nM or not?
Result: yes

====

- tested system: Sodium-dependent dopamine transporter (Rattus norvegicus, UniProt P23977)
- assay text: Functional cocaine antagonism was evaluated by inhibition of [3H]dopamine reuptake at a concentration of 30 nM with cocaine
endpoint label: pIC50
// pIC50 is dimensionless: -log10 of concentration (M)

pIC50 reported for this molecule "CN1C[C@@H](C(=O)c2cccs2)[C@H](c2ccc(Cl)cc2)C1" : 7.34

====

Task for the reader: assign each of the following compounds its reported pKi.
- tested system: Sodium-dependent serotonin transporter (Rattus norvegicus, UniProt P31652)
- Sequence (P31652 whole entry): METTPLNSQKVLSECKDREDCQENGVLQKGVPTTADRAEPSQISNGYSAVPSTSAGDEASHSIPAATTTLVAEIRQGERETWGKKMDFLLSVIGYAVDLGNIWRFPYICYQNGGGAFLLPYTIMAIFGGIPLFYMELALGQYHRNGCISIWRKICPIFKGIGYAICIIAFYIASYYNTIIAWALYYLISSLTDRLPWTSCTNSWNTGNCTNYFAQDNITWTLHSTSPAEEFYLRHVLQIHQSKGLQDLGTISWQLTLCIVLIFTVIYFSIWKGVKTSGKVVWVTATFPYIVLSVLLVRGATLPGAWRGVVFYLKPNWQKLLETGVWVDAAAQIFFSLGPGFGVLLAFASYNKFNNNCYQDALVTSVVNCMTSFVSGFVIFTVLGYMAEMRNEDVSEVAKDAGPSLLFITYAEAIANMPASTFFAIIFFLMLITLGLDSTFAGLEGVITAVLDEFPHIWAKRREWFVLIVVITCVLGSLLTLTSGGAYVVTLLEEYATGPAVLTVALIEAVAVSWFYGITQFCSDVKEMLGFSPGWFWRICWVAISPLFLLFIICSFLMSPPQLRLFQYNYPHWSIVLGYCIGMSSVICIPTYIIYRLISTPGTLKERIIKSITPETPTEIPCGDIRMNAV
- assay text: Inhibition of [3H]5-HT uptake at Serotonin transporter in rat mid brain
// pKi is dimensionless: -log10 of concentration (M)

pKi reported for this compound "CN1C[C@@H](C(=O)c2ccc(F)cc2)[C@H](c2ccc(F)cc2)C1" : 6.42

pKi reported for this compound "CN1C[C@@H](C(=O)c2ccccn2)[C@H](c2ccccc2)C1" : 6.08

pKi reported for this compound "CN1C[C@@H](C(=O)c2ccccc2)[C@H](c2ccccc2)C1" : 6.12

pKi reported for this compound "CN1C[C@@H](C(=O)c2ccccc2Cl)[C@H](c2ccc(Cl)cc2)C1" : 6.27

pKi reported for this compound "CN1C[C@@H](C(=O)c2ccc(Cl)cc2)[C@H](c2ccccc2)C1" : 6.28

pKi reported for this compound "CN1C[C@@H](C(=O)c2cccs2)[C@H](c2ccc(Cl)cc2)C1" : 6.64

====

- tested system: Sodium-dependent dopamine transporter (Rattus norvegicus, UniProt P23977)
- assay text: Functional cocaine antagonism was evaluated by inhibition of [3H]dopamine reuptake at a concentration of 300 nM with cocaine
endpoint label: pIC50
// pIC50 is dimensionless: -log10 of concentration (M)

pIC50 reported for this compound "CN1C[C@@H](C(=O)c2ccccn2)[C@H](c2ccccc2)C1" : 6.19
